Entry source: a melting point compilation (Tetko et al.; mined from patent text by program, amines drawn as free bases though some values may be those of a salt)

Please respond with reported melting point for every item in the list.

Each molecule below has a reported value. Please supply its melting point.
1. CCCCCCCCCCCCc1c[nH]c2cc(C(=O)OC)ccc12
2. CCCn1nc2c(N)nc3ccccc3c2c1NCc1ccccc1
3. CC1(C)C(C=NOCC2CC2)C1C(=O)O (stereo unspecified)

A)
85 to 89 °C
160 to 161 °C
82 to 85 °C

###

Exercise: state measured melting point for each of the compounds provided.

# example entries with known answers
Compound: O=C(Nc1ccc(C(=O)N2CCc3cn[nH]c3-c3ccccc32)cn1)c1ccccc1-c1ccccc1
melting point: 228 to 234 °C
--
Compound: Cc1c(Cc2cc(Cl)cc(Cl)c2)c(C(F)(F)F)nn1CCO
melting point: 91 to 93 °C
--
Compound: Oc1ccc2oc(-c3ccc(O)c(Cl)c3)nc2c1
melting point: 254 to 256 °C

Below are some compounds; for each one, tell me its melting point.
1. CC(C)C(=O)c1cccc(S(N)(=O)=O)c1
2. CCCCCCC(CCC(=O)OC)n1cnc(NC(=O)c2ccccc2C(=O)O)c1 (configuration not stated)
3. Nc1ncc(CCCCCc2cccc3ccccc23)c(N)n1
4. O=C(Oc1ccccc1)c1ccc2[nH]nnc2c1

A)
["170 to 171 °C", "135 to 136 °C", "128 to 133 °C", "156 to 160 °C"]
